Values compiled from patent EP0350948B1.

- System: nitrosoamine-induced pancreatic cancer
- ASSAY TEXT: laser irradiation to the extirpated organ (excited fluorescent spectrum, N2-PLS measurement), tumor to tissue ratio
- Assay type: in vivo, Golden hamsters
- CONDITIONS: i.v. 25 mg/kg bodyweight, organs extirpated at 24 hours after administration
READOUT NAME: tumor/tissue cancer/ liver
Answer using only a numeral; do not append any unit.

CCCCOC(C)C1=C(C)C2=Cc3c(C(C)OCCCC)c(C)c4[n]3[Ga][n]3c(c(C)c(CCC(=O)NC(CC(=O)O)C(=O)O)c3=CC3=NC(=C4)C(C)=C3CCC(=O)NC(CC(=O)O)C(=O)O)=CC1=N2 (stereo not shown) [(8) C4-Ga-DP-diAsp]	3.54

IN: // lookup tumor/tissue cancer/ liver for CCOC(C)C1=C(C)C2=Cc3c(C(C)OCC)c(C)c4[n]3[Ga][n]3c(c(C)c(CCC(=O)NC(CC(=O)O)C(=O)O)c3=CC3=NC(=C4)C(C)=C3CCC(=O)NC(CC(=O)O)C(=O)O)=CC1=N2 (stereo not shown) [(5) C2-Ga-DP-diAsp]
OUT: 0.71

IN: // lookup tumor/tissue cancer/ liver for C=CC1=C(C)C2=Cc3c(C(C)OCCO)c(C)c4[n]3[Ga][n]3c(c(C)c(CCC(=O)NC(CC(=O)O)C(=O)O)c3=CC3=NC(=C4)C(C)=C3CCC(=O)NC(CC(=O)O)C(=O)O)=CC1=N2 (stereo not shown) [(2) monoEG-Ga-DP-diAsp]
OUT: 2.30

IN: // lookup tumor/tissue cancer/ liver for CCCCCCCCOC(C)C1=C(C)C2=Cc3c(C(C)OCCCCCCCC)c(C)c4[n]3[Ga][n]3c(c(C)c(CCC(=O)NC(CC(=O)O)C(=O)O)c3=CC3=NC(=C4)C(C)=C3CCC(=O)NC(CC(=O)O)C(=O)O)=CC1=N2 (stereo not shown) [(12) C8-Ga-DP-diAsp]
OUT: 1.47
